Give CC50 at 3 days for every item shown.
- test: CC50 assay (CellTiter-Glo) in Huh-7 HCV replicon cells
- Format: cell-based, human
- cond: human, 3 days incubation, CellTiter-Glo readout
- Method: The anti-HCV activity of the pyrido[3,2-d]pyrimidine derivatives of this invention was tested in a human hepatoma Huh-7 cell line harboring a HCV replicon. The assay comprised the following steps: Step 1: Compound Preparation and Serial Dilution • 1. for water soluble pyrido[3,2-d]pyrimidine derivatives, a volume of 500 μL of solution in cell media (DMEM, 10% FBS, P/S, L-Glutamine) was prepared with a concentration being twice the concentration of the starting final serial dilution concentration. […]

* CCOc1nc(NCc2ccc(F)cc2)nc2ccc(-c3cccc(N(CCO)S(C)(=O)=O)c3)nc12 [Example 102] | 5 to 25 µM
* NS(=O)(=O)c1ccc(CNc2nc(NC3CC3)c3nc(-c4ccc(F)cc4)ccc3n2)cc1 [Example 296] | > 25 µM
* CCOc1nc(NCc2ccc(F)cc2)nc2ccc(-c3ccc(C(=O)NC(C)(C)CO)cc3)nc12 [Example 94] | 5 to 25 µM

Need CC50 at 3 days of NS(=O)(=O)c1ccc(CNc2nc(NCC(F)(F)F)c3nc(-c4ccc(F)c(S(=O)(=O)N5CCNCC5)c4)ccc3n2)cc1 [Example 217] , thanks.
< 5 µM

----------
- test: CC50 assay (CellTiter-Glo) in Huh-7 HCV replicon cells
- Type: cell-based, human
- cond: human, 3 days incubation, CellTiter-Glo readout
quantity-measured: CC50 at 3 days

* CC(C)Nc1nc(NCC(F)F)nc2ccc(-c3ccc(F)cc3)nc12 | < 5 µM
* CC(C)(C)OC(=O)N1CCC(NS(=O)(=O)c2cc(-c3ccc4nc(NCc5ccc(S(N)(=O)=O)cc5)nc(NCC(F)(F)F)c4n3)ccc2Cl)CC1 | 5 to 25 µM
* CC(C)N1CCC(Nc2nc(NCc3ccc(F)cc3)nc3ccc(-c4ccc(F)cc4)nc23)CC1 | < 5 µM
* NC(=O)c1ccc(-c2ccc3nc(NCc4ccc(S(N)(=O)=O)cc4)nc(NCC(F)(F)F)c3n2)cc1 | 5 to 25 µM
* CCOc1nc(NCc2ccc(S(N)(=O)=O)cc2)nc2ccc(-c3cccc(N(CCO)S(C)(=O)=O)c3)nc12 | > 25 µM
* COCCOc1nc(NCc2ccc(S(N)(=O)=O)cc2)nc2ccc(-c3ccc(F)c(Cl)c3)nc12 | 5 to 25 µM

Read the next record carefully.
Need CC50 at 3 days of "CC(C)(N)C(=O)Nc1ccc(-c2ccc3nc(NCc4ccc(F)cc4)nc(NCC(F)(F)F)c3n2)cc1" , thanks.
< 5 µM

----------
- test: CC50 assay (CellTiter-Glo) in Huh-7 HCV replicon cells
- Assay type: cell-based, human
- cond: human, 3 days incubation, CellTiter-Glo readout
quantity-measured: CC50 at 3 days

* CS(=O)(=O)CCNc1nc(NCc2ccc(S(N)(=O)=O)cc2)nc2ccc(-c3ccc(F)c(Cl)c3)nc12 | < 5 µM

Quick batch: CC50 at 3 days for everything below.
1. CCOc1nc(NCc2ccc(F)cc2)nc2ccc(-c3ccc4c(c3)CC(=O)N4)nc12
2. COCCNS(=O)(=O)c1cc(-c2ccc3nc(NCc4ccc(S(N)(=O)=O)cc4)nc(NCC(F)(F)F)c3n2)ccc1Cl
3. CCOc1nc(NCc2ccc(S(N)(=O)=O)cc2)nc2ccc(-c3cccc(NS(=O)(=O)N(C)C)c3)nc12

["5 to 25 µM", "5 to 25 µM", "< 5 µM"]

----------
Give CC50 at 3 days for every item shown.
- test: CC50 assay (CellTiter-Glo) in Huh-7 HCV replicon cells
- Type: cell-based, human
- cond: human, 3 days incubation, CellTiter-Glo readout

- NS(=O)(=O)c1ccc(CNc2nc(Nc3ccc(-n4cncn4)cc3)c3nc(-c4ccc(F)cc4)ccc3n2)cc1: < 5 µM
- CCOc1nc(NCc2ccc(F)cc2)nc2ccc(-c3ccc(NC(=O)C(C)(C)N)cc3)nc12: < 5 µM
- CCOc1nc(NCc2ccc(F)cc2)nc2ccc(-c3ccc(C(=O)NC(C)(C)CN4CCCC4)cc3)nc12: < 5 µM

Read the next record carefully.
Need CC50 at 3 days of "NS(=O)(=O)c1ccc(CNc2nc(NCC(F)(F)F)c3nc(-c4cccc(S(N)(=O)=O)c4)ccc3n2)cc1" , thanks.
> 25 µM

----------
- test: CC50 assay (CellTiter-Glo) in Huh-7 HCV replicon cells
- Format: cell-based, human
- cond: human, 3 days incubation, CellTiter-Glo readout
- Experimental: The anti-HCV activity of the pyrido[3,2-d]pyrimidine derivatives of this invention was tested in a human hepatoma Huh-7 cell line harboring a HCV replicon. The assay comprised the following steps: Step 1: Compound Preparation and Serial Dilution • 1. for water soluble pyrido[3,2-d]pyrimidine derivatives, a volume of 500 μL of solution in cell media (DMEM, 10% FBS, P/S, L-Glutamine) was prepared with a concentration being twice the concentration of the starting final serial dilution concentration. […]
quantity-measured: CC50 at 3 days

Worked set:
* CC(Nc1nc(NCC(F)(F)F)c2nc(-c3ccc(F)cc3)ccc2n1)c1ccc(S(N)(=O)=O)cc1 (stereo not shown) | < 5 µM
* Cn1cc(-c2ccc3nc(NCc4ccc(S(N)(=O)=O)cc4)nc(NCC(F)(F)F)c3n2)cn1 | > 25 µM
* CCOc1nc(NCc2ccc(F)cc2)nc2ccc(-c3ccc(NC(N)=O)cc3)nc12 | > 25 µM

Read the next record carefully.
Need CC50 at 3 days of "CC(C)N1CCN(S(=O)(=O)c2cc(-c3ccc4nc(NCc5ccc(S(N)(=O)=O)cc5)nc(NCC(F)(F)F)c4n3)ccc2F)CC1" , thanks.
< 5 µM

----------
Give CC50 at 3 days for every item shown.
- test: CC50 assay (CellTiter-Glo) in Huh-7 HCV replicon cells
- Format: cell-based, human
- cond: human, 3 days incubation, CellTiter-Glo readout

Quick batch: CC50 at 3 days for everything below.
1. CCOc1nc(NCc2ccc(F)cc2)nc2ccc(-c3ccc(NC(=O)[C@@H]4CCCN4)cc3)nc12
2. NS(=O)(=O)c1cc(-c2ccc3nc(NCc4ccc(F)cc4)nc(NCC(F)(F)F)c3n2)ccc1F
3. NC(=O)CCNc1nc(NCc2ccc(F)cc2)nc2ccc(-c3ccc(F)cc3)nc12
4. COCCNc1nc(NCc2ccc(F)cc2)nc2ccc(-c3ccc(F)cc3)nc12
5. COCCNc1nc(NCC(F)(F)F)c2nc(-c3ccc(F)cc3)ccc2n1
6. CC(C)(CN1CCCC1)NC(=O)c1ccc(-c2ccc3nc(NCc4ccc(S(N)(=O)=O)cc4)nc(NCC(F)(F)F)c3n2)cc1

< 5 µM
> 25 µM
5 to 25 µM
< 5 µM
5 to 25 µM
< 5 µM

Quick batch: CC50 at 3 days for everything below.
1. CC(C)Nc1nc(Nc2ccccc2)nc2ccc(-c3ccc(F)cc3)nc12
2. CCOc1nc(NCc2ccc(S(N)(=O)=O)cc2)nc2ccc(-c3ccc(N4CC(O)CC4=O)cc3)nc12 (stereo not shown)
3. CCOc1nc(NCc2ccc(CS(N)(=O)=O)cc2)nc2ccc(-c3ccc(F)cc3)nc12
4. CCN(CC)c1nc(NCc2ccc(S(N)(=O)=O)cc2)nc2ccc(-c3ccc(F)cc3)nc12
5. Fc1ccc(CNc2nc(N[C@@H]3CCOC3)c3nc(-c4ccc(F)cc4)ccc3n2)cc1
6. CCOc1nc(NCc2ccc(F)cc2)nc2ccc(-c3ccc(NC(=O)[C@H]4CCNC4)c(F)c3)nc12
7. CCOc1nc(NCc2ccc(S(N)(=O)=O)cc2)nc2ccc(-c3ccc(C(=O)NC4CC4)cc3)nc12
8. NS(=O)(=O)c1ccc(CNc2nc(C3CC3)c3nc(-c4ccc(F)c(S(N)(=O)=O)c4)ccc3n2)cc1

1: > 25 µM; 2: > 25 µM; 3: 5 to 25 µM; 4: 5 to 25 µM; 5: 5 to 25 µM; 6: < 5 µM; 7: 5 to 25 µM; 8: 5 to 25 µM

Quick batch: CC50 at 3 days for everything below.
1. NS(=O)(=O)c1ccc(CNc2nc(OC3CCC3)c3nc(-c4ccc(F)cc4)ccc3n2)cc1
2. CCOc1nc(NCc2ccc(S(C)(=O)=O)cc2)nc2ccc(-c3ccc(F)cc3)nc12
3. CCOc1nc(NCc2ccc(S(N)(=O)=O)cc2)nc2ccc(-c3cccc(S(N)(=O)=O)c3)nc12
4. CN(CCS(C)(=O)=O)c1nc(NCc2ccc(S(N)(=O)=O)cc2)nc2ccc(-c3ccc(F)cc3)nc12
5. NS(=O)(=O)c1ccc(CNc2nc(C3CC3)c3nc(-c4cccc(S(N)(=O)=O)c4)ccc3n2)cc1
6. CCOc1nc(NCc2c(F)cc(F)cc2F)nc2ccc(-c3ccc(F)cc3)nc12
7. CS(=O)(=O)CCNc1nc(NCc2ccc(S(N)(=O)=O)cc2)nc2ccc(-c3cnc(N)s3)nc12
8. CCOc1nc(NCc2ccc(F)cc2)nc2ccc(-c3ccc(F)c(S(N)(=O)=O)c3)nc12

5 to 25 µM
< 5 µM
5 to 25 µM
< 5 µM
< 5 µM
5 to 25 µM
5 to 25 µM
5 to 25 µM

These data points were gathered from patent US8729089B2.
